Data provenance is patent US3985761A.

Measurement record for Nocardia asteroides; quantity recorded: MIC.
PROPERTY_LABEL: MIC (µg/mL)

[
  {
    "COMPOUND": "CC(=Cc1ccc(OC(=O)Nc2ccc(Br)cc2)cc1)[N+](=O)[O-] [drawing 14]",
    "PROPERTY_LABEL": "MIC",
    "EXPERIMENTAL_VALUE": 50
  },
  {
    "COMPOUND": "CC(=Cc1ccc(O)c(Cl)c1)[N+](=O)[O-] [drawing 20]",
    "PROPERTY_LABEL": "MIC",
    "EXPERIMENTAL_VALUE": 50
  },
  {
    "COMPOUND": "O=[N+]([O-])C=Cc1cc(Cl)ccc1O [drawing 21]",
    "PROPERTY_LABEL": "MIC",
    "EXPERIMENTAL_VALUE": 25
  },
  {
    "COMPOUND": "CC(=Cc1ccc(OC(=O)Nc2ccc(Br)cc2)c(Cl)c1)[N+](=O)[O-] [drawing 22]",
    "PROPERTY_LABEL": "MIC",
    "EXPERIMENTAL_VALUE": 50
  },
  {
    "COMPOUND": "CC(=Cc1ccc(Oc2ncc([N+](=O)[O-])s2)cc1)[N+](=O)[O-] [drawing 19]",
    "PROPERTY_LABEL": "MIC",
    "EXPERIMENTAL_VALUE": 12.5
  },
  {
    "COMPOUND": "CC(=Cc1ccc(OC(=O)Nc2ccc(C)cc2)cc1)[N+](=O)[O-] [drawing 13]",
    "PROPERTY_LABEL": "MIC",
    "EXPERIMENTAL_VALUE": 25.5
  },
  {
    "COMPOUND": "CC(=Cc1cccc(O)c1)[N+](=O)[O-] [drawing 18]",
    "PROPERTY_LABEL": "MIC",
    "EXPERIMENTAL_VALUE": 25
  },
  {
    "COMPOUND": "CCCCNC(=O)Oc1ccc(C=C(C)[N+](=O)[O-])cc1 [drawing 15]",
    "PROPERTY_LABEL": "MIC",
    "EXPERIMENTAL_VALUE": 50
  },
  {
    "COMPOUND": "CC(=Cc1ccc(OC(=O)NC2CCCCC2)cc1)[N+](=O)[O-] [drawing 16]",
    "PROPERTY_LABEL": "MIC",
    "EXPERIMENTAL_VALUE": 50
  },
  {
    "COMPOUND": "CC(=Cc1ccc(OC(=O)Nc2ccccc2)cc1)[N+](=O)[O-] [drawing 17]",
    "PROPERTY_LABEL": "MIC",
    "EXPERIMENTAL_VALUE": 25
  }
]

###

System: Proteus vulgaris ox 19
PROPERTY_LABEL: MIC

[
  {
    "COMPOUND": "O=[N+]([O-])C=Cc1cc(Cl)ccc1O [drawing 11]",
    "TARGET_ENTITY": "Proteus vulgaris ox 19",
    "EXPERIMENTAL_VALUE": "25 µg/mL"
  },
  {
    "COMPOUND": "CCCCNC(=O)Oc1ccc(C=C(C)[N+](=O)[O-])cc1 [drawing 5]",
    "TARGET_ENTITY": "Proteus vulgaris ox 19",
    "EXPERIMENTAL_VALUE": "6.25 µg/mL"
  },
  {
    "COMPOUND": "CC(=Cc1ccc(OC(=O)Nc2ccc(C)cc2)cc1)[N+](=O)[O-] [drawing 3]",
    "TARGET_ENTITY": "Proteus vulgaris ox 19",
    "EXPERIMENTAL_VALUE": "6.25 µg/mL"
  },
  {
    "COMPOUND": "CC(=Cc1ccc(OC(=O)Nc2ccc(Br)cc2)c(Cl)c1)[N+](=O)[O-] [drawing 12]",
    "TARGET_ENTITY": "Proteus vulgaris ox 19",
    "EXPERIMENTAL_VALUE": "6.25 µg/mL"
  },
  {
    "COMPOUND": "CC(=Cc1ccc(OC(=O)NC2CCCCC2)cc1)[N+](=O)[O-] [drawing 6]",
    "TARGET_ENTITY": "Proteus vulgaris ox 19",
    "EXPERIMENTAL_VALUE": "6.25 to 12.5 µg/mL"
  },
  {
    "COMPOUND": "CC(=Cc1cccc(O)c1)[N+](=O)[O-] [drawing 8]",
    "TARGET_ENTITY": "Proteus vulgaris ox 19",
    "EXPERIMENTAL_VALUE": "3.12 µg/mL"
  },
  {
    "COMPOUND": "CC(=Cc1ccc(OC(=O)Nc2ccccc2)cc1)[N+](=O)[O-] [drawing 7]",
    "TARGET_ENTITY": "Proteus vulgaris ox 19",
    "EXPERIMENTAL_VALUE": "12.5 µg/mL"
  },
  {
    "COMPOUND": "CC(=Cc1ccc(Oc2ncc([N+](=O)[O-])s2)cc1)[N+](=O)[O-] [drawing 9]",
    "TARGET_ENTITY": "Proteus vulgaris ox 19",
    "EXPERIMENTAL_VALUE": "1.56 to 3.12 µg/mL"
  },
  {
    "COMPOUND": "CC(=Cc1ccc(O)c(Cl)c1)[N+](=O)[O-] [drawing 10]",
    "TARGET_ENTITY": "Proteus vulgaris ox 19",
    "EXPERIMENTAL_VALUE": "6.25 µg/mL"
  },
  {
    "COMPOUND": "CC(=Cc1ccc(OC(=O)Nc2ccc(Br)cc2)cc1)[N+](=O)[O-] [drawing 4]",
    "TARGET_ENTITY": "Proteus vulgaris ox 19",
    "EXPERIMENTAL_VALUE": "6.25 µg/mL"
  }
]
